Tested on: U-251
Test: NCI tumour cell line growth inhibition, 48 h
Activity calls are given as the source filed them. Rule as the data show it: active = GI50 up to about 1.1 µM and inactive = higher.
Measure: GI50

Answered examples (5):
[
  {
    "Chemical Structure": "C[N+](C)(CCO)CCN1c2ccccc2Sc2ccccc21",
    "Study System": "U-251",
    "GI50": "> 10 µM (inactive)"
  },
  {
    "Chemical Structure": "CCSCN(C)c1nc(N(C)C)nc(N(C)C)n1",
    "Study System": "U-251",
    "GI50": "54.2 µM (inactive)"
  },
  {
    "Chemical Structure": "COc1nc(C#CC2CCCCC2)nc(OC)n1",
    "Study System": "U-251",
    "GI50": "3.39 µM (inactive)"
  },
  {
    "Chemical Structure": "S=C=Nc1ccc(CSc2nc3ccccc3[nH]2)cc1",
    "Study System": "U-251",
    "GI50": "17.1 µM (inactive)"
  },
  {
    "Chemical Structure": "COc1ccc(NC(=S)NNC(=O)c2nsc3ccccc23)cc1",
    "Study System": "U-251",
    "GI50": "40.8 µM (inactive)"
  }
]

(Q) So what's the measured GI50 for this one? `Nc1ccc(/N=N\c2ccc(-c3ccc(O)cc3)cc2)c2ccc(S(=O)(=O)O)cc12`
(A) > 100 µM (inactive)

---

The molecules listed here are annotated with their GI50.
Test system: COLO 205
Experiment: NCI tumour cell line growth inhibition, 48 h
Activity calls are given as the source filed them. Rule as the data show it: active = GI50 up to about 1.1 µM and inactive = higher.

(Q) Missing value: GI50, COLO 205, entry `CS(=O)(=O)Nc1ccc(N2Cc3c[nH]c4ccc5nccc2c5c34)cc1` . Fill in?
(A) 11.9 µM (inactive)

(Q) Follow-up entry: CNc1ccc(C(=O)CC(O)CCC(C)C2OC(=O)CC(O)CC(=O)CC(O)CC(O)CC(O)CC(O)CC3(O)CC(O)C(C(=O)NCCN(C)C)C(CC(OC4OC(C)C(O)C(NC(=O)CN5CCN(C)CC5)C4O)\C=C/C=C\C=C/C=C/C=C/C=C\C=C/C2C)O3)cc1 (stereo not drawn)
(A) 3.86 µM (inactive)

(Q) And what about the molecule `O=C(/N=C1\SCCN1C(=O)C(C(F)(F)F)C(F)(F)F)C(C(F)(F)F)C(F)(F)F` ?
(A) > 100 µM (inactive)

---

Test system: 786-0
Assay: NCI tumour cell line growth inhibition, 48 h
Activity calls are given as the source filed them. Rule as the data show it: active = GI50 up to about 1.1 µM and inactive = higher.
Measured GI50 of individual entries

Previously resolved entries follow.
[
  {
    "Compound": "c1ccc2/c3[nH]/c(c2c1)=N\\c1ccc(cc1)-c1nc2ccc(cc2o1)/N=c1/[nH]/c(c2ccccc12)=N/c1ccc2nc(oc2c1)-c1ccc(cc1)\\N=3",
    "GI50": "31 µM (inactive)"
  },
  {
    "Compound": "CCN(CC)CC(C)C(=O)/C=C/c1ccc(C)cc1 (stereo not given)",
    "GI50": "1.88 µM (inactive)"
  },
  {
    "Compound": "COC1/C(=C\\C(C)=O)c2ccccc2N1C(C)=O (stereo not given)",
    "GI50": "> 100 µM (inactive)"
  },
  {
    "Compound": "Cc1ccc(S(=O)(=O)NC(CCC(=O)NN)C(=O)NN)cc1 (stereo not given)",
    "GI50": "> 100 µM (inactive)"
  },
  {
    "Compound": "NS(=O)(=O)c1ccc(NC(=O)Nc2ccccc2F)cc1",
    "GI50": "> 100 µM (inactive)"
  }
]

Now look at this one.
(Q) Would you kindly share the measured GI50 for `Cc1cc(NCCCCCCCCCC[n+]2c(C)cc(N)c3ccccc32)c2ccccc2n1` ?
(A) 1.78 µM (inactive)

---

Tested on: NCI-H460
Experiment: NCI tumour cell line growth inhibition, 48 h
The source made the active and inactive calls. Rule as the data show it: active = GI50 up to about 1.1 µM and inactive = higher.
Select the matching outcome among 1.0 (active), 0.0 (inactive)

Worked cases, answers included:
[
  {
    "Compound": "C=C(CC(NC(=O)c1ccc(C(CC)Cc2cnc3nc(N)nc(N)c3n2)cc1)C(=O)O)C(=O)O (stereo not given)",
    "Group Label": 1.0
  },
  {
    "Compound": "Cc1c(NC(=O)CCl)c(=O)oc2c(C)c3occc(=O)c3cc12",
    "Group Label": 0.0
  },
  {
    "Compound": "N#CN=C(NCc1ccccc1)NCc1ccccc1",
    "Group Label": 0.0
  },
  {
    "Compound": "O=C1CC(C(=O)O)Cc2c(Br)ccc(O)c21 (stereo not given)",
    "Group Label": 0.0
  },
  {
    "Compound": "C=C(c1ccc2[nH]c(NC(=O)OC)nc2c1)c1cccs1",
    "Group Label": 1.0
  },
  {
    "Compound": "O=C(Nc1cccc([N+](=O)[O-])c1)C(=O)C(C(=O)c1ccccc1-c1ccccc1)C1OC(=O)c2ccccc21 (stereo not given)",
    "Group Label": 0.0
  }
]

(Q) Give the logged outcome of this assay for the following compound: Cc1ccc2c(c1)nc1n2C(c2c(F)cccc2F)SC1 (stereo not given)
(A) 0.0

(Q) Can you handle `Cc1cc(NCCCCCCCCCC[n+]2c(C)cc(N)c3ccccc32)c2ccccc2n1` next?
(A) 1.0

(Q) Request: CN1N=C(c2ccncc2)OC1c1ccc(Cl)c(Cl)c1 (stereo not given)
(A) 0.0

(Q) Likewise for NC1=NC(=O)C(CC(=O)Nc2ccc([N+](=O)[O-])cc2[N+](=O)[O-])S1 (stereo not given) ?
(A) 0.0

---

# key: entry, value: GI50
System: T47D
Assay: NCI tumour cell line growth inhibition, 48 h
The source made the active and inactive calls. Cut-off read from the data, not from the text of the source: active = GI50 up to about 1.1 µM and inactive = higher.

Example entries begin here.
[
  {
    "Compound": "C=C(C)C(=O)OC1C[C@H](COC(C)=O)C2CC=C(C)C2C2OC(=O)C(=C)[C@H]12 (stereo not given in full)",
    "Observed Measurement": "4.98 µM (inactive)"
  },
  {
    "Compound": "c1cc(C[S+]2CCCC2)oc1C[S+]1CCCC1",
    "Observed Measurement": "> 100 µM (inactive)"
  },
  {
    "Compound": "Oc1cc(O)c2c(c1)OC(c1ccc(O)c(O)c1)C(OC1(c3cc(O)c(O)c(O)c3)Oc3cc(O)cc(O)c3C(O)C1O)C2 (stereo not given)",
    "Observed Measurement": "37.6 µM (inactive)"
  },
  {
    "Compound": "COc1ccc2c(c1)[C@@]13CCN4CC5=CCO[C@H]6CC(=O)N2[C@H]1[C@H]6[C@H]5C[C@H]43",
    "Observed Measurement": "> 100 µM (inactive)"
  }
]

Now, please, on to the next compound.
(Q) Look up GI50 for this compound: `CN(C)c1nc(N)nc(CCl)n1`
(A) 60.4 µM (inactive)

---

Test system: DU-145
Test: NCI tumour cell line growth inhibition, 48 h
Activity calls are given as the source filed them. Rule as the data show it: active = GI50 up to about 1.1 µM and inactive = higher.
Give one outcome, nothing more. List: 1 (active), -1 (inactive)

Examples from the recorded data:
[
  {
    "Compound": "CC(=O)O[C@H]1CCC2[C@@H]3CCC4Nc5oncc5C[C@]4(C)C3CC[C@@]21C (stereo not given in full)",
    "Group Label": -1
  },
  {
    "Compound": "[O-][n+]1onc2c3nn(-c4ccccc4)nc3ccc21",
    "Group Label": -1
  },
  {
    "Compound": "CCSc1[nH]c(Nc2nc(-c3ccccc3)n(-c3ccccc3)n2)c(C(N)=O)c1C(N)=O",
    "Group Label": -1
  },
  {
    "Compound": "C[C@@H](c1ccccc1)N1C[C@@H](c2ccc3c(c2)OCO3)[C@@H]2C(=O)CCC[C@@H]21",
    "Group Label": -1
  },
  {
    "Compound": "Cc1cc(C)nc(NS(=O)(=O)c2ccc(NNc3c4ccccc4nc4c(C(=O)Nc5ccc(S(N)(=O)=O)cc5)cccc34)cc2)n1",
    "Group Label": -1
  }
]

(Q) Assay result, entry `Nc1cccc2cc(Cl)cnc12` — outcome?
(A) -1

(Q) Can you check CN(C)c1ccc(C(Cc2ccccc2)C2NC(=S)NC2=O)cc1 (stereo not given) next?
(A) -1

(Q) Cool, now `Cc1c(-c2ccc(O)c(O)c2)oc(=O)c2c(O)cccc12`
(A) -1

(Q) Same thing, different compound: `Brc1ccc(/N=C/C=C(\Nc2ccc(Br)cc2)C23CC4CC(CC(C4)C2)C3)cc1`
(A) -1

(Q) One more compound: `CCOP(=O)(OCC)C(C)(C)N(C)/C(F)=N/C(F)(F)F`
(A) -1

---

System: DMS-273
Test: NCI tumour cell line growth inhibition, 48 h
The source made the active and inactive calls. Cut-off read from the data, not from the text of the source: active = GI50 up to about 1.1 µM and inactive = higher.
Measure: GI50

// known answers, use as guide
[
  {
    "Compound": "O=C1OC2CC=CC1C2 (stereo not drawn)",
    "GI50": "> 100 µM (inactive)"
  },
  {
    "Compound": "COc1ccc(/C(Cl)=C(\\C=O)c2ccc([N+](=O)[O-])cc2)cc1OC",
    "GI50": "11.8 µM (inactive)"
  },
  {
    "Compound": "CC(=O)c1sc(-c2nc(C)c(C(=O)/C=C\\c3ccc(/C=C\\C(=O)c4sc(-c5nc(C)c(C(C)=O)s5)nc4C)cc3)s2)nc1C",
    "GI50": "> 100 µM (inactive)"
  },
  {
    "Compound": "Cc1ccc(-c2cc(=O)c3cc(C)c(C)c(C(=O)O)c3o2)cc1[N+](=O)[O-]",
    "GI50": "> 100 µM (inactive)"
  },
  {
    "Compound": "O=C(CCN1CCCC1)CC(c1ccccc1)c1c(O)c2ccccc2oc1=O (stereo not drawn)",
    "GI50": "> 100 µM (inactive)"
  },
  {
    "Compound": "COc1ccc2c(C(=O)O)cc3cc(OC)c(OC)cc3c2c1",
    "GI50": "> 100 µM (inactive)"
  },
  {
    "Compound": "COC1/C(=C\\C(C)=O)c2ccccc2N1C(C)=O (stereo not drawn)",
    "GI50": "> 100 µM (inactive)"
  },
  {
    "Compound": "CCSCN(C)c1nc(N(C)C)nc(N(C)C)n1",
    "GI50": "38.6 µM (inactive)"
  }
]

(Q) Please look up its GI50: COC(=O)C1(C)CCc2c(OC)ccc(OC)c2C1=O (stereo not drawn)
(A) > 100 µM (inactive)

(Q) Can you check `C[Si](C)(C)C1(Sc2ccccc2)SCCCS1` next?
(A) 35.2 µM (inactive)

(Q) Try `COc1cc(C=O)cc(O)c1O` next.
(A) > 100 µM (inactive)

(Q) Same for `CC[C@]12C=CCN3CC[C@@]4(c5ccc(OC)cc5N(C)[C@H]4[C@@](O)(C(=O)OC)[C@@H]1OC(C)=O)[C@@H]32`
(A) > 140 µM (inactive)

(Q) Now consider NC(=O)C1C(=O)Oc2cccnc21 (stereo not drawn) .
(A) > 100 µM (inactive)

(Q) Thanks! And `COc1ccc(/C(Cl)=C/c2ccc(Cl)c(Cl)c2)cc1` ?
(A) 24.4 µM (inactive)

(Q) Entry `Cc1ccc(N2C(=O)CS/C2=C(\C#N)c2nc3ccccc3[nH]2)cc1` please
(A) > 100 µM (inactive)

(Q) Also `COc1ccc(NC(=O)CC(=O)n2nc(-c3ccccc3)c(/N=N/c3ccccc3C(=O)O)c2-c2ccccc2)cc1` ?
(A) > 100 µM (inactive)

(Q) Now give it for `COc1ccc(Cc2c(=O)[nH]nc3ccccc23)cc1` too.
(A) > 100 µM (inactive)
